Would you kindly list Emax (MFI) for each of these binders?
Measurement target: T1, endogenous cell surface human MSLN (human, UniProt Q13421 296-598)
T1 construct: whole, on cells; The cell line is named under assay; also called cell-surface MSLN on NCI-H226, OVCAR-3 and AsPC-1 cells
T1 sequence (Q13421 other isoform, or with tags, fused parts or gaps limits assumed): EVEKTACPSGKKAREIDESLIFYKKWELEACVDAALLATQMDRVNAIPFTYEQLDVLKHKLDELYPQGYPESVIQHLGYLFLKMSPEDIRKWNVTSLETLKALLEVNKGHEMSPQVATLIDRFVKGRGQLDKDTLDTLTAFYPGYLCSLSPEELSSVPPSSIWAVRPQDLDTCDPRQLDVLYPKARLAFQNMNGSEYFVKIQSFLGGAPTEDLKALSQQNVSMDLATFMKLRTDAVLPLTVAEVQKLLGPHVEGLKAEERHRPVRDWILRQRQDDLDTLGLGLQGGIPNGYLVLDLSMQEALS
Experimental details: flow cytometry, NCI-H226 cells + 20 nM soluble MSLN
Experimental: To confirm binding to cell surface MSLN, mAb² listed in Table 9 were analysed for binding to endogenous cell surface MSLN on the human lung cancer cell line NCI-H226. In addition, and because MSLN can be found in blood in a shed soluble form, there is a risk that this circulating MSLN might affect exposure and ultimately potency of our mAb². […]
Number plus unit, in that order.

Briefly, Emax (MFI) measured for FS22-172-003-AA/FS28-024-051 (bispecific antibody, human IgG1, kappa, L234A L235A, V domains shown, IgG1 mAb^2 with LALA) VH: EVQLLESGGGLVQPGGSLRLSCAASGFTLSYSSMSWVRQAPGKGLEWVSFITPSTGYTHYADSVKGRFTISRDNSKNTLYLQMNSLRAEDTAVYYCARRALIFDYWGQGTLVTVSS VL: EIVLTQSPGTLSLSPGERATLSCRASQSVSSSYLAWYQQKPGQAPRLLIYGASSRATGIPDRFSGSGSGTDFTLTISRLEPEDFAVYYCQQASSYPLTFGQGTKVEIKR : 798000 MFI

Briefly, Emax (MFI) measured for FS22-172-003-AA/FS28-256-005 (bispecific antibody, human IgG1, kappa, L234A L235A, V domains shown, IgG1 mAb^2 with LALA) VH: EVQLLESGGGLVQPGGSLRLSCAASGFTFTETYMSWVRQAPGKGLEWVSNISPTYSTTNYADSVKGRFTISRDNSKNTLYLQMNSLRAEDTAVYYCARYNSYQGGLDYWGQGTLVTVSS VL: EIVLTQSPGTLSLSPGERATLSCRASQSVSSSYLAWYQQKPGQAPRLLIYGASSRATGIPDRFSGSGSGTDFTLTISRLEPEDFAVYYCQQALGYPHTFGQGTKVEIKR : 424000 MFI
